Every entry's value here was drawn from the nanobody polyreactivity screen of Harvey et al. (2022).

experiment: yeast display, Sf9 membrane polyspecificity reagent, FACS + sequencing; frameworks hold sequencing errors

- sequence.entry: "QVQLEESGGGLVQAGGSLRLSCAASGSILRVNVMVWYRQAPGKERELVAAITSGGRTYYADSVKGRFTISRDNAKNTVYLQMNSLIQEDTAVYYCAAKFFRNTYSYGMDYWGQGTQVTVSS"
  polyreactivity (PSR sort gate): "high polyreactivity"
- sequence.entry: "QVQLVESGGGLVQAGGSLRLSCAASGFTFDGYAMGWYRQAPVKERDLVAAISDSGDSTYYADSVKGRFTISRDNAKNTVYVQMNILKPEDTAVYYCNAEQWQSSEYGEWSKRDYWGQGTQVTVSS"
  polyreactivity (PSR sort gate): "low polyreactivity"
- sequence.entry: "QFQLVESGRGLVQAGGSLRLSCAASGRIFSYNTLGWYRQAPGKERELVAAITNNGGSTYYADSVKGRFTISRDNAKNTVYLQMNSLKPEDTAVYYCNRDRYPFYYAYNYWGQGTQVTVSS"
  polyreactivity (PSR sort gate): "low polyreactivity"
- sequence.entry: "QVQLVESGGGLVQAGGSLRLSCAASGRTFKYYAMGWYRQAPGKERELVASITRGSSTNYADSVKGRFTISRDNAKNTVYLQMNSLKPEDTAVYYCATGPGRALPRPTSAYYYWGQGTQVTVSS"
  polyreactivity (PSR sort gate): "high polyreactivity"
- sequence.entry: "QVQLVESVGGLVHAGGSLRLSCAASGRTFGYNAMGWYRQATGKERELVAAISFRGGTTYYADSVKGRFTISRDNAKITVYLQMNCLIPEDPSVYYCAARYYYRYTGGRLDYWGQGTQVTVSS"
  polyreactivity (PSR sort gate): "high polyreactivity"
